Below, each entry is listed with its recorded GLXMAW herbicidal rating.
Test system: GLXMAW Soybean, Williams
Assay Procedure: Preemergence herbicidal evaluation, GLXMAW
Format: in vivo, Glycine max, (L.) Merr. cv Williams
Design: scale not given here
Experimental Parameters: preemergence, rate 0.032 kg/ha
Answer field: number only, no words.

Worked examples follow.
> print(dat)
                                   molecule  test.result
1  COc1ccc(-n2nnc3cc(F)c(-n4c(=O)cc(C(F)(F)F)n(C)c4=O)cc32)c(C)c1 [Example 24]          1.0
2  CCc1ccc(-n2nnc3cc(F)c(-n4c(=O)cc(C(F)(F)F)n(C)c4=O)cc32)cc1 [Example 17]          1.7
3  COC(=O)COc1ccccc1-n1nnc2cc(F)c(-n3c(=O)cc(C(F)(F)F)n(C)c3=O)cc21 [Example 35]          0.0
4  CCc1cccc(-n2nnc3cc(F)c(-n4c(=O)cc(C(F)(F)F)n(C)c4=O)cc32)c1 [Example 29]          1.0
5  COc1ccc(Cl)cc1-n1nnc2cc(F)c(-n3c(=O)cc(C(F)(F)F)n(C)c3=O)cc21 [Example 30]          1.0
6  Cc1ccc(O)c(-n2nnc3cc(F)c(-n4c(=O)cc(C(F)(F)F)n(C)c4=O)cc32)c1 [Example 31]          0.0

Value of measured GLXMAW herbicidal rating for the entry CCc1ccccc1-n1nnc2cc(F)c(-n3c(=O)cc(C(F)(F)F)n(C)c3=O)cc21 [Example 25] : 0.0

Cited source for all entries: patent US20020111274A1
